Data credit: patent US20250043299A1

target: DHS3^WT; assay: DHS enzyme assay, recombinant DHS3^WT; details: read-out: IC50 of effector molecule on DHS3^WT
pIC50: −log10 of the molar value.
MEASURED_QUANTITY: pIC50

[[record]]
compound = "O=C(O)Cc1cc(O)ccc1O [HGA, homogentisate]"
measured_quantity = "pIC50"
result_number = 3.99

[[record]]
compound = "O=C(O)C(=O)Cc1ccc(O)cc1 [HPP, 4-Hydroxyphenylpyruvate]"
measured_quantity = "pIC50"
result_number = 3.29


###

molecular target: Arabidopsis thaliana DHS1 (AtDHS1), wild type (DHS1^WT), SEQ ID NO:1 (Arabidopsis thaliana, UniProt P29976); construct: without the predicted plastid transit peptide (amino acid residues; 49-525, 34-507, and 52-527, respectively); made in house; host or cells: E. coli Rosetta-2; assay: DHS enzyme assay with effector, Arabidopsis DHS1 WT; type: biochemical; settings: DHS1^WT; 4 mM E4P, 4 mM PEP, pH 7.4, 37° C.
Sequence (P29976 49-525): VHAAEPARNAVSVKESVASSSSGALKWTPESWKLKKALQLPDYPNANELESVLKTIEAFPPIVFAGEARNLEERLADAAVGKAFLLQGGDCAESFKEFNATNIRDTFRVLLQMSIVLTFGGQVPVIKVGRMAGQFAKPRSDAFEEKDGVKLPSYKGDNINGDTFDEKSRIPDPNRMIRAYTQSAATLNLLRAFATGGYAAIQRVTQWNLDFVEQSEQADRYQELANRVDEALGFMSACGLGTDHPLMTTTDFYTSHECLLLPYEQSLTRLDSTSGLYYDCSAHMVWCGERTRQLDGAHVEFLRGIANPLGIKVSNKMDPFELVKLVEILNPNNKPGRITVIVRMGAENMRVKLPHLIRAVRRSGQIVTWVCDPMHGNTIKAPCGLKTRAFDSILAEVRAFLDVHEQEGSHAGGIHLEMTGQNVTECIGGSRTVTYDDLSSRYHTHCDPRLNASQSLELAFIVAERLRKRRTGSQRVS
MEASURED_QUANTITY: IC50 (µM)

[[record]]
compound = "O=C(O)C(=O)Cc1ccc(O)cc1 [HPP, 4-Hydroxyphenylpyruvate]"
measured_quantity = "IC50"
unit_abbrev = "µM"
result_number = 305


###

biological target: Arabidopsis thaliana DHS2 (SEQ ID NO:2) variant DHS2^A11 (sotaA11), A224T (Arabidopsis thaliana, UniProt Q00218, A224T); construct: without the predicted plastid transit peptide (amino acid residues; 49-525, 34-507, and 52-527, respectively); assay: DHS enzyme assay with effector, DHS2 sotaA11
Sequence (Q00218 34-507 A224T): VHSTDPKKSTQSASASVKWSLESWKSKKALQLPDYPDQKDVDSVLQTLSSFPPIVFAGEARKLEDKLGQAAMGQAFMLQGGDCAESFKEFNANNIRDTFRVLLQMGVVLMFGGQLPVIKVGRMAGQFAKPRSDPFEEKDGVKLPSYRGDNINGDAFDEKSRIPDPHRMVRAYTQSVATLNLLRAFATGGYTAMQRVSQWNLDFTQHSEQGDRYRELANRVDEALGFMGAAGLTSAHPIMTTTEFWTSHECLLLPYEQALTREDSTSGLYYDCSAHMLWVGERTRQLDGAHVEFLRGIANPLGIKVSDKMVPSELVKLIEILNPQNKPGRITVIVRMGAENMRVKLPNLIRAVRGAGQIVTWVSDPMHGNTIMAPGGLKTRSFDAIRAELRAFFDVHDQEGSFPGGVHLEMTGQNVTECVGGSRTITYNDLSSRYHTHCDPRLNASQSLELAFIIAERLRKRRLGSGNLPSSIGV
pIC50: −log10 of the molar value.
Catalogue of pIC50 readings, one per entry.
MEASURED_QUANTITY: pIC50

[[record]]
molecule = "O=C(O)Cc1cc(O)ccc1O [HGA, homogentisate]"
measured_quantity = "pIC50"
result_number = 3.62

[[record]]
molecule = "O=C(O)C(=O)Cc1c[nH]c2ccccc12 [IPA, indole-3-pyruvate]"
measured_quantity = "pIC50"
result_number = 4.04

[[record]]
molecule = "O=C(O)C(=O)Cc1ccc(O)cc1 [HPP, 4-Hydroxyphenylpyruvate]"
measured_quantity = "pIC50"
result_number = 4.23


###

The following compounds are shown together with reported IC50 values.
molecular target: DHS1^B4 (Arabidopsis thaliana, UniProt P29976, G244R); construct: without the predicted plastid transit peptide (amino acid residues; 49-525, 34-507, and 52-527, respectively); made in house; host or cells: E. coli; assay: DHS enzyme assay, recombinant DHS1^B4; assay type: biochemical; conditions: recombinant enzyme; read-out: IC50 of effector molecule on DHS1^B4
Sequence (P29976 49-525 G244R): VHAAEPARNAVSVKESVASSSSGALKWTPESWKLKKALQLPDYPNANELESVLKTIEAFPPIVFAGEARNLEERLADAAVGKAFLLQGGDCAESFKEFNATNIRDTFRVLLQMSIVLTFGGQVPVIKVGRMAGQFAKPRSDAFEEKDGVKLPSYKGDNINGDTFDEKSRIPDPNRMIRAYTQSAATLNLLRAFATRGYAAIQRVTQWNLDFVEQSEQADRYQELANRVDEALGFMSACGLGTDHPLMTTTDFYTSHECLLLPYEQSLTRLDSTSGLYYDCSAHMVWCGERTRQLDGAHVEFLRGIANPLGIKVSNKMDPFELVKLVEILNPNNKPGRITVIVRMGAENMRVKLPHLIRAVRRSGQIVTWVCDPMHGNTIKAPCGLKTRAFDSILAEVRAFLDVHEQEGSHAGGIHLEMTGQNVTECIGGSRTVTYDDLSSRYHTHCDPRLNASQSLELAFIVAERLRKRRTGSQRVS
MEASURED_QUANTITY: IC50 (µM)

[[record]]
compound = "C=C(O[C@@H]1C=C(C(=O)O)C=C[C@H]1O)C(=O)O [Chorismate]"
measured_quantity = "IC50"
unit_abbrev = "µM"
result_number = 25.3

[[record]]
compound = "O=C(O)C(=O)Cc1ccc(O)cc1 [HPP, 4-Hydroxyphenylpyruvate]"
measured_quantity = "IC50"
unit_abbrev = "µM"
result_number = 835

[[record]]
compound = "O=C(O)Cc1cc(O)ccc1O [HGA, homogentisate]"
measured_quantity = "IC50"
unit_abbrev = "µM"
result_number = 2990

[[record]]
compound = "O=C(O)C(=O)Cc1c[nH]c2ccccc12 [IPA, indole-3-pyruvate]"
measured_quantity = "IC50"
unit_abbrev = "µM"
result_number = 5000

